- system.under.test: T1, human NMI (N-myc Interacting protein), recombinant protein (human, UniProt Q13287 1-307, limits assumed)
- T1 construct: Gene ID: 9111; also called hNMI; antigen
- T1 sequence (looked up): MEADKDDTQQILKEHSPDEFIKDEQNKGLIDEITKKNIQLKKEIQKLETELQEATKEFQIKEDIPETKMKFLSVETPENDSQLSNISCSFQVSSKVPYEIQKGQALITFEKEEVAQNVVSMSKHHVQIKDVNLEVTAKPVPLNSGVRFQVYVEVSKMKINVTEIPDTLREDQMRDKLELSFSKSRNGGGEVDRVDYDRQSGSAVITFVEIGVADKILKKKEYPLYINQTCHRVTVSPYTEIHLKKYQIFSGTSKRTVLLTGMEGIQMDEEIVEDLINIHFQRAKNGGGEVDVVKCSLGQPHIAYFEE
- protocol.details: sandwich ELISA; detection 94C4-1-biotin 0.5µg/mL; hNMI 6,250.000 pg/mL
endpoint: OD450 (OD450)
# number only, unit OD450 dropped from output

binder	OD450 (OD450)
monoclonal antibody 240B10-1 (antibody, V domains shown, Rabbit monoclonal antibody) VH: QSLEESGGRLVTPGGSLTLTCTVSGIDLSSYTMGWVRQAPGKGLEYIGIISGGGRTYYASWAKGRFTISKTSSTTVDLKVTSLTTEDTATYFCARIYTLWGQGTLVTVSS VL: QVLTQTLASVSAAVGGTVTINCQSSQSVYNNDYLAWFQQKSGQPPKQLIHSASKLASGVPSRFKGSGSGTQFTLTINDVQCDDAATYYCLGGYDCYSADCNVFGGGTEVVVK	1.58
monoclonal antibody 39B4 (antibody, V domains shown, Rabbit monoclonal antibody; also called 39B4-1) VH: QEQLVESGGGLVQPEGSLTLTCTASGFSFSSSYWICWVRQAPGKGLEWIACIYAGTSGSTYYASWAKGRFTISKTSSTTVDLQMNSLTAADTATYFCARAGYYTYGAGVYIYPSSFKLWGPGTLVTVSS VL: DVVMTQTPASVEAAVGGTVTIKCQASESIGNALAWYQQKPGQPPKLLIYSASNLASGVPSRFSGSGSGTQFTLTISDLECADAATYYCQSYYYSSSSITFGGGTEVVVK	1.56

Kindly consider the entry below.
binder monoclonal antibody B-8 (antibody, V domains shown, Rabbit monoclonal antibody; also called B8-1) VH: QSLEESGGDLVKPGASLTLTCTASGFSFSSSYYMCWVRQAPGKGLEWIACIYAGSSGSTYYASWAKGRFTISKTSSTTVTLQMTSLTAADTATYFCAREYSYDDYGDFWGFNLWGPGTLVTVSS VL: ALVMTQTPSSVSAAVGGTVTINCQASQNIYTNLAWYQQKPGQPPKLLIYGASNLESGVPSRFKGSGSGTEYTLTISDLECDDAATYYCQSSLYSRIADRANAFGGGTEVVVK , OD450 observed: 1.29
